test: Cytotoxicity against human QGY7701 cells assessed as growth inhibition incubated for 72 hrs by MTT assay; type: functional, cell-based; conditions: QGY7701, 72 h
pIC50: −log10 of the molar value.
READOUT_TYPE: pIC50

>>> reported_measurement("C=C(C)CC[C@H](OC(C)=O)[C@@]1(C)C[C@@H]2OC(=O)C(=C)[C@@H]2CC1=O")
5.31
>>> reported_measurement("C=C1C(=O)O[C@H]2C[C@](C)(/C=C/C(=O)CC)C(=O)C[C@@H]12")
5.21
>>> reported_measurement("C=C1C(=O)O[C@H]2C[C@](C)(C(=O)CC(=O)CC)C(=O)C[C@@H]12")
4.86
>>> reported_measurement("C=C1C(=O)O[C@H]2C[C@]3(C)C(=O)C=C(CC)OC3=C[C@@H]12")
5.45
>>> reported_measurement("C=C1C(=O)O[C@H]2C[C@@H](C)C(=O)C[C@@H]12")
5.07
>>> reported_measurement("C=C(C)CC[C@H](O)[C@@]1(C)C[C@@H]2OC(=O)C(=C)[C@@H]2CC1=O")
5.06
>>> reported_measurement("C=C1C(=O)O[C@H]2C[C@]3(C)C(=O)C=C(CC)[C@@H](C3=O)[C@@H]12")
5.26
>>> reported_measurement("C=C1C(=O)O[C@H]2C[C@@]3(C)C(=O)[C@@H]([C@@H]12)[C@](O)(CC)C[C@@H]3OCOC")
5.11
